The values you see were collected from paper PMC10397247.

Target: T1, P9A-bH
T1 chain: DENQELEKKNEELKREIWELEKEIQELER
Experiment: two-hybrid library CCNG1;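 also: natural log of median RNA to DNA barcode read ratio; higher means stronger binding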
quantityMeasured: interaction score

DKIQELKKENEELERKIWELKKENQELER [P8A-bH] : -0.34

A: DEIQELEKKNEELKREIWELEKKNQELKR [P7A-bH]
B: DKIQELKKKIEELKRENWELEKENQELER [P4A-bH]
C: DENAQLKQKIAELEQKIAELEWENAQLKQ [4H1828-bA]
Query: Kindly order the items shown according to interaction score, from the highest value down. # format: label list in the order the request specifies
Response: C, B, A
